Target: S1-Fc (SARS-CoV-2, UniProt P0DTC2 16-685)
Assay: phage ELISA
The entries below are paired with their reported ELISA fold over background.

- binder: "1-29 (antibody, V domains shown, also called variant 1-29) VH: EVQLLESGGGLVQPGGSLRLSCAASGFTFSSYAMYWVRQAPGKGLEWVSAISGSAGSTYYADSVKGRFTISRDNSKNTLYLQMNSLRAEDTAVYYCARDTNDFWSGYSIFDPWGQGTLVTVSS VL: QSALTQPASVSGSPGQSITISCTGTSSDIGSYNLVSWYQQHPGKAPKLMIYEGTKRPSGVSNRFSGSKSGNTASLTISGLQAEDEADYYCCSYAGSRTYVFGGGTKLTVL"
  ELISA fold over background [fold over background]: 1
- binder: "1-17 (antibody, V domains shown, also called variant 1-17) VH: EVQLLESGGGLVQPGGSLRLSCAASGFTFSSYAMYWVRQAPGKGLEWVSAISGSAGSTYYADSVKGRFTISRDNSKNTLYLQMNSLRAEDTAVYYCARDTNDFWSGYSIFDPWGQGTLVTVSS VL: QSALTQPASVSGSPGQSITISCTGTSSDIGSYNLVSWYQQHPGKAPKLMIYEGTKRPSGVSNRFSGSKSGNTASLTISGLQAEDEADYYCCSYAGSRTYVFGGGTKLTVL"
  ELISA fold over background [fold over background]: 1.6
- binder: "1-32 (antibody, V domains shown, also called variant 1-32) VH: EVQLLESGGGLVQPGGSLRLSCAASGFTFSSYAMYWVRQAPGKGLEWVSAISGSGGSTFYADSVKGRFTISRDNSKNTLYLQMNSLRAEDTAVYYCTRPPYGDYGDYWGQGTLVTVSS VL: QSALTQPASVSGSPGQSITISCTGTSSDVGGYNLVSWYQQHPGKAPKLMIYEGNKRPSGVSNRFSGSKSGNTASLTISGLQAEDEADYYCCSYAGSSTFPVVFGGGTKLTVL"
  ELISA fold over background [fold over background]: 4

The measured values listed here are drawn from patent US20210395344A1.
